experimental-system: human EAAT3 (Homo sapiens)
Construct: isolation of Clone GT11B containing a full-length open reading frame encoding EAAT3; expressed in transfected cells; host or cells: COS-7 cells, pCMV5 construct, DEAE-dextran transient transfection
Sequence (P43005 1-524): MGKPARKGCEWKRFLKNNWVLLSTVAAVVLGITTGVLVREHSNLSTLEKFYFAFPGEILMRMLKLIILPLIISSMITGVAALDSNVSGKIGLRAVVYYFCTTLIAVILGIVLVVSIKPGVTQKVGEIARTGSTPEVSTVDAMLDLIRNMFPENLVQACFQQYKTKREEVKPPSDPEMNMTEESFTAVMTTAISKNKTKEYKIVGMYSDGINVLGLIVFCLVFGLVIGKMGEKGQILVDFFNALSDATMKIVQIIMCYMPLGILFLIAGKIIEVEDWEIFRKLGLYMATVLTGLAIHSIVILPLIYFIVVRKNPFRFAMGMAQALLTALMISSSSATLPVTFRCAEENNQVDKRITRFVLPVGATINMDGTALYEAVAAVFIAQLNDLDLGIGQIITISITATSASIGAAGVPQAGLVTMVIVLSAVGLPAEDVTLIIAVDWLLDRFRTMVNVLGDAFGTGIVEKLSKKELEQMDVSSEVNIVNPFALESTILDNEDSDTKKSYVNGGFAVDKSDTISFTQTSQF
experimental-protocol: inhibition of [3H]-L-glutamate uptake in COS-7 cells expressing EAAT3
Assay type: cell-based
condition-set: read-out: Ki, glutamate uptake inhibition constant, EAAT3
recorded-endpoint: Ki
Phrase the answer as number then unit, nothing more needed.

Task: State the recorded Ki for this entry: N[C@H](C(=O)O)[C@H](O)C(=O)O [THA, L-threo-β-hydroxyaspartate]
Output: 25 µM

Task: State the recorded Ki for this entry: "N[C@@H](CS(=O)O)C(=O)O"
Output: 17 µM

Task: State the recorded Ki for this entry: O=C(O)[C@H]1CN[C@H](C(=O)O)C1 [PDC, L-trans-pyrrolidine-2,4-dicarboxylate]
Output: 61 µM

Task: State the recorded Ki for this entry: N[C@@H](CC(=O)NO)C(=O)O [L-aspartate-β-hydroxymate]
Output: 133 µM

====

experimental-system: human EAAT3 (Homo sapiens, UniProt P43005)
Construct: isolation of Clone GT11B containing a full-length open reading frame encoding EAAT3; expressed in transfected cells; host or cells: COS-7 cells, pCMV5 construct, DEAE-dextran transient transfection
experimental-protocol: inhibition of [3H]-L-glutamate uptake in COS-7 cells expressing EAAT3
Assay type: cell-based
recorded-endpoint: Ki (µM)
Output spec: scalar in µM, unitless text.

Task: Form entry - test system: human EAAT3 (Homo sapiens, UniProt P43005); read-out: Ki; compound: N[C@@H](COS(=O)(=O)O)C(=O)O [SOS, L-serine-O-sulfate]
Output: 150

====

experimental-system: human EAAT2 (Homo sapiens)
Construct: expressed in transfected cells; host or cells: COS-7 cells, pCMV5 construct, DEAE-dextran transient transfection
experimental-protocol: inhibition of [3H]-L-glutamate uptake in COS-7 cells expressing EAAT2
Assay type: cell-based
condition-set: read-out: Ki, glutamate uptake inhibition constant, EAAT2
Procedure: DNA fragments comprising the coding sequences of the novel glutamate transporter genes of the invention were excised from the POTV constructs described in Example 3 and subcloned into the mammalian expression plasmid pCMV5 (Anderson et al., 1989, J. Biol. Chem. 264: 8222-8229). […] In these experiments, uptake of 1 μM of […] was determined in the presence of the indicated amounts of each of the inhibitors.
recorded-endpoint: Ki (µM)
Output spec: scalar in µM, unitless text.

Task: State the recorded Ki for this entry: N[C@H](C(=O)O)[C@H](O)C(=O)O [THA, L-threo-β-hydroxyaspartate]
Output: 19

Task: State the recorded Ki for this entry: O=C(O)[C@H]1CN[C@H](C(=O)O)C1 [PDC, L-trans-pyrrolidine-2,4-dicarboxylate]
Output: 8

Task: State the recorded Ki for this entry: "N[C@@H](CS(=O)O)C(=O)O"
Output: 6

Task: State the recorded Ki for this entry: N[C@@H](CC(=O)NO)C(=O)O [L-aspartate-β-hydroxymate]
Output: 184
